test: Phase I pharmacokinetics, single PO dose; assay type: in vivo, human; conditions: human, blood, po, 4 mg

structure | unit_descriptor | half-life
Cc1ccc2c(c1)c1c(n2CCc2ccccc2)CCN(C)C1 | h | 8.15

====

assay: Pharmacokinetics in dogs; assay type: in vivo, dogs (Beagle); settings: Beagle, dog, blood, po, 5 mg/kg

structure | AUC
Cc1ccc2c(c1)c1c(n2CCc2ccccc2)CCN(C)C1 | 31.6 ng·h/mL

====

experiment: Metabolism in human liver S9 fraction; assay type: in vitro ADME; settings: human, liver S9 fraction, T1/2, +NADPH, 1μM

structure | half-life at 1 µM, min
Cc1ccc2c(c1)c1c(n2CCc2ccccc2)CCN(C)C1 | 24.8
